B1: MBP-TRAK1_(342-431) [human] / MIRO1_(177-591) [human] (parent)
chain 1: EAQEELKNLRNKTMPNTTSRRYHSLGLFPMDSLAAEIEGTMRKELQLEEAESPDITHQKRVFETVRNINQVVKQRSLTPSPMNIPGSNQS
chain 2: EEKEMKPACIKALTRIFKISDQDNDGTLNDAELNFFQRICFNTPLAPQALEDVKNVVRKHISDGVADSGLTLKGFLFLHTLFIQRGRHETTWTVLRRFGYDDDLDLTPEYLFPLLKIPPDCTTELNHHAYLFLQSTFDKHDLDRDCALSPDELKDLFKVFPYIPWGPDVNNTVCTNERGWITYQGFLSQWTLTTYLDVQRCLEYLGYLGYSILTEQESQASAVTVTRDKKIDLQKKQTQRNVFRCNVIGVKNCGKSGVLQALLGRNLMRQKKIREDHKSYYAINTVYVYGQEKYLLLHDISESEFLTEAEIICDVVCLVYDVSNPKSFEYCARIFKQHFMDSRIPCLIVAAKSDLHEVKQEYSISPTDFCRKHKMPPPQAFTCNTADAPSKDIFVKLTTMAMYPHVTQADLKSST

Variants of: B1
Test: ITC
Settings: with MIRO1_(177-591) [human]; 370 µM MBP-TRAK1(342-431) 400KR401 to AA in syringe, 30 µM MIRO1(177-591) in cell; ITC buffer with 5 mM EGTA
Outcome measure: pKd
Recall that pKd is obtained by taking minus log10 of the concentration measured in molar.

Problem: What value of pKd has been reported for the following variant? chain 1 K59A R60A
Result: 5.02
